# testMethodNotes: Toxicokinetics in 13-week topical ocular dog study
# experimentalConditions: male, beagle, in vivo, topical or ocular, 50 mg/mL/occasion, male dogs, 50 mg/mL, 12 daily doses, Day 1, read-out: Cmax
measuredQuantity: Cmax (ng/mL)
Only the number, expressed in ng/mL, is required.

For the molecule Cc1ccccc1OCC(=O)N[C@@H](CC(C)C)C(=O)N[C@@H](Cc1ccc(OC(=O)N2CCC(C(N)=O)CC2)cc1)C(=O)O , what Cmax is on record?
69.7

---

# testMethodNotes: Toxicokinetics in 13-week topical ocular rabbit study
# experimentalConditions: female, New Zealand White, in vivo, topical or ocular, 50 mg/mL/occasion, female rabbits, 50 mg/mL, 12 daily doses, Day 1, after the first daily dose
measuredQuantity: Cmax
Report field: quantity (unit follows the number).

What value of Cmax has been recorded for this entry: Cc1ccccc1OCC(=O)N[C@@H](CC(C)C)C(=O)N[C@@H](Cc1ccc(OC(=O)N2CCC(C(N)=O)CC2)cc1)C(=O)O [GW559090]
30.6 ng/mL

---

# testMethodNotes: Toxicokinetics in 13-week topical ocular dog study
# experimentalConditions: female, beagle, in vivo, topical or ocular, 50 mg/mL/occasion, female dogs, 50 mg/mL, 6 daily doses, Day 1
measuredQuantity: Tmax
The answer should read as a number with its unit following.

Quick one: Tmax for Cc1ccccc1OCC(=O)N[C@@H](CC(C)C)C(=O)N[C@@H](Cc1ccc(OC(=O)N2CCC(C(N)=O)CC2)cc1)C(=O)O ?
15 min

---

# assayedTarget: Human α4β1 (Homo sapiens, UniProt P05556+P13612)
# Construct: characterized in human J6 cells which express VLA-4; endogenous in cells
# Sequence (P13612 34-1032): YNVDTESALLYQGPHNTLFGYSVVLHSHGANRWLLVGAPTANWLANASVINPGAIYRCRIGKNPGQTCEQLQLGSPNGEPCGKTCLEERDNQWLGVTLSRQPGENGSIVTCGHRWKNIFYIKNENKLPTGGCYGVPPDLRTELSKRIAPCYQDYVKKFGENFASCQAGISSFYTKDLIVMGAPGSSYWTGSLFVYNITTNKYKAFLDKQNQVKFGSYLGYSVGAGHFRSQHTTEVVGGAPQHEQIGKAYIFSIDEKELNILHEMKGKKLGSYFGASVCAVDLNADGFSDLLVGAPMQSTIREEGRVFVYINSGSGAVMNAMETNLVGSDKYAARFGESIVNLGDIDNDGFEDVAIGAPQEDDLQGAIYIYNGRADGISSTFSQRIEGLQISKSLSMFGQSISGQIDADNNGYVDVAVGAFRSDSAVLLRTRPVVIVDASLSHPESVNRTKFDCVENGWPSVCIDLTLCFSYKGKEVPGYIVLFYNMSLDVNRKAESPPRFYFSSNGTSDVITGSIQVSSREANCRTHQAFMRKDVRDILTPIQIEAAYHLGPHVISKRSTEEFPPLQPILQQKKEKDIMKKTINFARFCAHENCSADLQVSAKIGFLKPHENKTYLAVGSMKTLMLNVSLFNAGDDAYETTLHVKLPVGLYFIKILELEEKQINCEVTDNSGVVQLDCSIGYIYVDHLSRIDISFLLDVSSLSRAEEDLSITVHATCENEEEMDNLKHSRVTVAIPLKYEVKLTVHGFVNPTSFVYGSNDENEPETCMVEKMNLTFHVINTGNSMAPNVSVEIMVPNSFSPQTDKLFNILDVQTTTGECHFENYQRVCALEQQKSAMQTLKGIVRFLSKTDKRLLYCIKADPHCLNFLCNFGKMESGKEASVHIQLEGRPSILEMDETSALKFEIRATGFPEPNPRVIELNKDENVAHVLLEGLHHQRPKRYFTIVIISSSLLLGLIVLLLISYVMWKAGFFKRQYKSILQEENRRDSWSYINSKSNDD
# Sequence (P05556 21-798): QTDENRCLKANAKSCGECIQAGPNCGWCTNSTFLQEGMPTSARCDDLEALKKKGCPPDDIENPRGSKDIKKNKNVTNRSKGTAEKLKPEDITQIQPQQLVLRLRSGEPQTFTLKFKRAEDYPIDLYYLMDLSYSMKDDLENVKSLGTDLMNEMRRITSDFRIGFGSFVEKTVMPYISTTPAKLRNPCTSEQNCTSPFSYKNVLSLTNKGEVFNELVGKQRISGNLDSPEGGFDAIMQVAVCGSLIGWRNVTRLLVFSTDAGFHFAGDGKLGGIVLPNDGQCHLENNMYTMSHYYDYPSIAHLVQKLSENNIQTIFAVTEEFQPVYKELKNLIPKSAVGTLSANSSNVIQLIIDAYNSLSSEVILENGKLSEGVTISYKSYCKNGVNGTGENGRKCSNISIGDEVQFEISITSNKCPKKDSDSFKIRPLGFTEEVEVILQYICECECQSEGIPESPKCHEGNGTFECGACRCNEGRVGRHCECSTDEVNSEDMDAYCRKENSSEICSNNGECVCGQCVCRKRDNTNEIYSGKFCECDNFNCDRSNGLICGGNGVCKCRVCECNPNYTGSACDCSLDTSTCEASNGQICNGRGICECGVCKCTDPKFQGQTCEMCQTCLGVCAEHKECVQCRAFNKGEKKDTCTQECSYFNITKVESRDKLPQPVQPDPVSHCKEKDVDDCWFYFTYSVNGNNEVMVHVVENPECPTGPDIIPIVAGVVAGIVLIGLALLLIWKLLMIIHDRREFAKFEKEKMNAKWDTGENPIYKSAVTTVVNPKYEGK
# testMethodNotes: J6 saturation binding assay (filtration) with [3H]GW559090
# experimentalConditions: [3H]GW559090, J6 cells; geometric mean and 95% CL, 4 experiments
measuredQuantity: pKd
Expect pKd as a plain number equal to -log10 of the molar concentration.

Could you share which pKd value was measured for Cc1ccccc1OCC(=O)N[C@@H](CC(C)C)C(=O)N[C@@H](Cc1ccc(OC(=O)N2CCC(C(N)=O)CC2)cc1)C(=O)O ?
9.72

---

# testMethodNotes: Toxicokinetics in 13-week topical ocular rabbit study
# experimentalConditions: female, New Zealand White, in vivo, topical or ocular, 50 mg/mL/occasion, female rabbits, 50 mg/mL, 6 daily doses, Week 4, after the first daily dose
measuredQuantity: Cmax (ng/mL)
All answers are understood in ng/mL, so give the number only.

Please look up its Cmax: Cc1ccccc1OCC(=O)N[C@@H](CC(C)C)C(=O)N[C@@H](Cc1ccc(OC(=O)N2CCC(C(N)=O)CC2)cc1)C(=O)O
44.4

---

# testMethodNotes: Toxicokinetics in 13-week topical ocular rabbit study
# experimentalConditions: male, New Zealand White, in vivo, topical or ocular, 50 mg/mL/occasion, male rabbits, 50 mg/mL, 6 daily doses, Day 1, read-out: AUC0-1
measuredQuantity: AUC(0-t) (ng·h/mL)
Supply the numeric figure in ng·h/mL, leaving out any unit text.

Looking for the measured AUC(0-t) of Cc1ccccc1OCC(=O)N[C@@H](CC(C)C)C(=O)N[C@@H](Cc1ccc(OC(=O)N2CCC(C(N)=O)CC2)cc1)C(=O)O , can you help?
14.4

---

# testMethodNotes: Toxicokinetics in 13-week topical ocular dog study
# experimentalConditions: female, beagle, in vivo, topical or ocular, 50 mg/mL/occasion, female dogs, 50 mg/mL, 6 daily doses, Week 13
measuredQuantity: Tmax (min)
All answers are understood in min, so give the number only.

Form field: reported Tmax of Cc1ccccc1OCC(=O)N[C@@H](CC(C)C)C(=O)N[C@@H](Cc1ccc(OC(=O)N2CCC(C(N)=O)CC2)cc1)C(=O)O [GW559090]
10

---

# testMethodNotes: Toxicokinetics in 13-week topical ocular rabbit study
# experimentalConditions: male, New Zealand White, in vivo, topical or ocular, 50 mg/mL/occasion, male rabbits, 50 mg/mL, 12 daily doses, Week 4, read-out: AUC0-24
measuredQuantity: AUC(0-t)

What value of AUC(0-t) has been reported for the following compound? Cc1ccccc1OCC(=O)N[C@@H](CC(C)C)C(=O)N[C@@H](Cc1ccc(OC(=O)N2CCC(C(N)=O)CC2)cc1)C(=O)O
0.139 µg·h/mL

---

# testMethodNotes: Toxicokinetics in 13-week topical ocular rabbit study
# experimentalConditions: female, New Zealand White, in vivo, topical or ocular, 50 mg/mL/occasion, female rabbits, 50 mg/mL, 12 daily doses, Day 1, read-out: AUC0-1
measuredQuantity: AUC(0-t) (ng·h/mL)
API: value field is a number in ng·h/mL; no unit string.

What does the record list as AUC(0-t) for Cc1ccccc1OCC(=O)N[C@@H](CC(C)C)C(=O)N[C@@H](Cc1ccc(OC(=O)N2CCC(C(N)=O)CC2)cc1)C(=O)O ?
7.3

---

# testMethodNotes: Toxicokinetics in 13-week topical ocular dog study
# experimentalConditions: female, beagle, in vivo, topical or ocular, 50 mg/mL/occasion, female dogs, 50 mg/mL, 6 daily doses, Day 1, read-out: AUC0-1
measuredQuantity: AUC(0-t) (ng·h/mL)
// return numeric value only (unit: ng·h/mL, not printed)

What value of measured AUC(0-t) is listed for Cc1ccccc1OCC(=O)N[C@@H](CC(C)C)C(=O)N[C@@H](Cc1ccc(OC(=O)N2CCC(C(N)=O)CC2)cc1)C(=O)O ?
8.79

---

# testMethodNotes: Toxicokinetics in 13-week topical ocular dog study
# experimentalConditions: male, beagle, in vivo, topical or ocular, 50 mg/mL/occasion, male dogs, 50 mg/mL, 6 daily doses, Week 4, read-out: AUC0-1
measuredQuantity: AUC(0-t) (ng·h/mL)
Write the answer as a number in ng·h/mL, unit excluded.

What does the data say about its AUC(0-t)? Entry: Cc1ccccc1OCC(=O)N[C@@H](CC(C)C)C(=O)N[C@@H](Cc1ccc(OC(=O)N2CCC(C(N)=O)CC2)cc1)C(=O)O [GW559090]
8.74

---

# testMethodNotes: Toxicokinetics in 13-week topical ocular rabbit study
# experimentalConditions: female, New Zealand White, in vivo, topical or ocular, 50 mg/mL/occasion, female rabbits, 50 mg/mL, 12 daily doses, Week 4, read-out: AUC0-24
measuredQuantity: AUC(0-t) (ng·h/mL)
Numbers only here, please. The scale is ng·h/mL.

What value of measured AUC(0-t) is listed for Cc1ccccc1OCC(=O)N[C@@H](CC(C)C)C(=O)N[C@@H](Cc1ccc(OC(=O)N2CCC(C(N)=O)CC2)cc1)C(=O)O [GW559090] ?
157

---

# testMethodNotes: Toxicokinetics in 13-week topical ocular dog study
# experimentalConditions: male, beagle, in vivo, topical or ocular, 50 mg/mL/occasion, male dogs, 50 mg/mL, 12 daily doses, Week 4
measuredQuantity: Tmax (min)
Give the value in min but do not write min after it.

May I ask what Tmax has been recorded for Cc1ccccc1OCC(=O)N[C@@H](CC(C)C)C(=O)N[C@@H](Cc1ccc(OC(=O)N2CCC(C(N)=O)CC2)cc1)C(=O)O [GW559090] ?
15

---

# testMethodNotes: Toxicokinetics in 13-week topical ocular rabbit study
# experimentalConditions: male, New Zealand White, in vivo, topical or ocular, 50 mg/mL/occasion, male rabbits, 50 mg/mL, 6 daily doses, Week 13, after the first daily dose
measuredQuantity: Tmax (min)
State just the number; it will be interpreted in min.

I would be grateful if you could share the reported Tmax for Cc1ccccc1OCC(=O)N[C@@H](CC(C)C)C(=O)N[C@@H](Cc1ccc(OC(=O)N2CCC(C(N)=O)CC2)cc1)C(=O)O .
4.98

---

# testMethodNotes: Toxicokinetics in 13-week topical ocular dog study
# experimentalConditions: female, beagle, in vivo, topical or ocular, 30 mg/mL/occasion, female dogs, 30 mg/mL, 6 daily doses, Week 4, read-out: Cmax
measuredQuantity: Cmax (ng/mL)
Numeric only. Scale: ng/mL

Item under review: Cc1ccccc1OCC(=O)N[C@@H](CC(C)C)C(=O)N[C@@H](Cc1ccc(OC(=O)N2CCC(C(N)=O)CC2)cc1)C(=O)O . Reported Cmax?
9.34

---

# testMethodNotes: Toxicokinetics in 13-week topical ocular rabbit study
# experimentalConditions: female, New Zealand White, in vivo, topical or ocular, 30 mg/mL/occasion, female rabbits, 30 mg/mL, 6 daily doses, Week 13, after the first daily dose
# Description: GW559090A was given to New Zealand White Rabbits by topical ocular administration for 13 weeks. Animals were dosed six or twelve times per day, with one hour between doses. Treatment groups were: (1) vehicle (12 times a day), (2) 30 mg/mL/occasion given six times a day, (3) 50 mg/mL/occasion given six times a day, or (4) 50 mg/mL/occasion, given 12 times a day. […]
measuredQuantity: Tmax (min)
Your answer is read as min, so omit the unit and give the number.

Fill in the blank: the reported Tmax of Cc1ccccc1OCC(=O)N[C@@H](CC(C)C)C(=O)N[C@@H](Cc1ccc(OC(=O)N2CCC(C(N)=O)CC2)cc1)C(=O)O is ____.
15
